Value source: ChEMBL document CHEMBL5291721

# assayed.target: Melanocortin receptor 4 (Homo sapiens, UniProt P32245); further: assay procedure not described here
# Sequence (P32245 whole entry): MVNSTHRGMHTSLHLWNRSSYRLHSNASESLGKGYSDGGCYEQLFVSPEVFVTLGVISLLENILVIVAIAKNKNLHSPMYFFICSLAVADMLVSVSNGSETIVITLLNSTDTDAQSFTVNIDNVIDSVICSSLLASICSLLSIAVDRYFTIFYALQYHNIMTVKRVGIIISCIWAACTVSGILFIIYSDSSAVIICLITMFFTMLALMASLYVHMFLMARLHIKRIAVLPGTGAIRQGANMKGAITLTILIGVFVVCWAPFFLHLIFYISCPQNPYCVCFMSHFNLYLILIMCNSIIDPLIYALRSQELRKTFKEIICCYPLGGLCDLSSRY
Listed compounds paired with reported AC50

CNC1=Nc2ccc(Cl)cc2C(c2ccccc2)=[N+]([O-])C1 [CHLORDIAZEPOXIDE] = > 30 µM
CC(N)C12CC3CC(CC(C3)C1)C2 (centres undefined) = > 10 µM
Cc1cnc(C(=O)NCCc2ccc(S(=O)(=O)NC(=O)NC3CCCCC3)cc2)cn1 [GLIPIZIDE] = > 30 µM
CC(C(=O)O)c1ccc2c(c1)[nH]c1ccc(Cl)cc12 (centres undefined) = > 10 µM
CN(C)CCc1c[nH]c2ccc(Cn3cncn3)cc12 = > 30 µM
CCC(=O)O[C@]1(C(=O)SCF)[C@H](C)C[C@H]2[C@@H]3C[C@H](F)C4=CC(=O)C=C[C@]4(C)[C@@]3(F)[C@@H](O)C[C@@]21C [FLUTICASONE PROPIONATE] = > 30 µM
CC(C(=O)O)c1ccc(-c2ccccc2)c(F)c1 (centres undefined) = > 10 µM
[H]/N=C(/N)N/C(=N/[H])NCCc1ccccc1 = > 30 µM

Enter measured AC50, system Melanocortin receptor 4 (Homo sapiens, UniProt P32245), for the compound shown: CN1CCC(=C2c3ccccc3CCc3cccnc32)CC1; further: assay procedure not described here
> 30 µM
